molecular target: CYP2D6 (Homo sapiens); construct: from tissue; host or cells: human liver microsomes; test: biochemical; type: in vitro ADME; details: human liver microsomes, 10 min incubation, LC-MS/MS; read-out: CYP Inhibition Activity (IC50/nM) CYP2D6
Sequence (P10635 whole entry): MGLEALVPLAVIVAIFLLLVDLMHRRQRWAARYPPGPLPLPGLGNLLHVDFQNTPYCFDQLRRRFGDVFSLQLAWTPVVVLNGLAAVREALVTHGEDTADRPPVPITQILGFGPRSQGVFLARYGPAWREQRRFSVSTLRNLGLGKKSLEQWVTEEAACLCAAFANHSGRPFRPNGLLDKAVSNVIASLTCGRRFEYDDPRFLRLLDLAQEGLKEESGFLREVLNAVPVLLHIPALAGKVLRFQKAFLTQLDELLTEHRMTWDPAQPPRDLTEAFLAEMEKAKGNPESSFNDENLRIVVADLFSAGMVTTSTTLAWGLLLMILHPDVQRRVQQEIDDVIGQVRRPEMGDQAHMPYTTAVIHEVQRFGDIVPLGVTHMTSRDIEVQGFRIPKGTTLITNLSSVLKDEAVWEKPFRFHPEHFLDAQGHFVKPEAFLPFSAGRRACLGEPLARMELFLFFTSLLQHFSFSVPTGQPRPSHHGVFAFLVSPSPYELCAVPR
READOUT KIND: IC50

O=C(Nc1cc(C(F)(F)F)ccc1N1CCN(Cc2ccccn2)CC1)c1ccc(-c2ccncc2)o1 [Reference Example 1, reference compound]
740 nM

Short answer on CYP2D6 (Homo sapiens) for O=C(Nc1cc(C(F)(F)F)ccc1N1CCC2(CCCC2)CC1)c1ccc(C2CCOCC2)o1 , IC50: > 30000 nM

====

Would you kindly list IC50 for each of these molecules?
target: CYP2C19 (Homo sapiens, UniProt P33261); construct: from tissue; host or cells: human liver microsomes; assay: CYP inhibition assay, human liver microsomes, substrate S-mephenytoin; format: in vitro ADME; conditions: human liver microsomes, 10 min incubation, LC-MS/MS; read-out: CYP Inhibition Activity (IC50/nM) CYP2C19
Sequence (P33261 whole entry): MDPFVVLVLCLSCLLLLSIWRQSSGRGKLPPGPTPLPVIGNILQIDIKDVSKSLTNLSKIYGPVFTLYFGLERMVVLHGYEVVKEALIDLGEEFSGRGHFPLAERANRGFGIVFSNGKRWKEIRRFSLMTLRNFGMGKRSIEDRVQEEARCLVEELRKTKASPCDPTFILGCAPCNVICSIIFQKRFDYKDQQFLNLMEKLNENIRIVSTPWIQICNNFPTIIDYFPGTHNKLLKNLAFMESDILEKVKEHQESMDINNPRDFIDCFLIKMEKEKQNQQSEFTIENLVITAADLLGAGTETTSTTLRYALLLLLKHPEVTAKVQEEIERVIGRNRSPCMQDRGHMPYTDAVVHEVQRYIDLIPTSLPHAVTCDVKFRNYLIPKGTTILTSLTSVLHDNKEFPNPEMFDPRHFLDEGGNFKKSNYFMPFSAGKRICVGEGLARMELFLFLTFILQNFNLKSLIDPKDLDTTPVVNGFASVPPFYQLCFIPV
One number for each entry, in nM.

Below, each entry is followed by its recorded IC50 result.
O=C(Nc1cc(C(F)(F)F)ccc1N1CCC(O)C1)c1ccc(-c2ccncc2)o1 (racemic)
130
O=C(Nc1cc(C(F)(F)F)ccc1N1CCC(O)C1)c1ccc(C2CCOCC2)o1 (racemic)
14500
O=C(Nc1cc(Cl)ccc1N1CCC(O)CC1)c1ccc(C2CCOCC2)o1
12200

Would you mind giving IC50 for every molecule in the list below?
1. CNC(=O)C1(C)CCN(c2ccc(C(F)(F)F)cc2NC(=O)c2ccc(-c3ccncc3)o2)CC1
2. CC1(CO)CCN(c2ccc(C(F)(F)F)cc2NC(=O)c2ccc(C3CCOCC3)o2)CC1
3. O=C(Nc1cc(C(F)(F)F)ccc1N1CCCC(O)CC1)c1ccc(-c2ccncc2)o1 (racemic)
4. CC1(C(=O)N2CCCC2)CCN(c2ccc(C(F)(F)F)cc2NC(=O)c2ccc(C3CCOCC3)o2)CC1
5. CC1(N)CCN(c2ccc(C(F)(F)F)cc2NC(=O)c2ccc(-c3ccncc3)o2)CC1

## Result
1. 1870
2. 15800
3. 8570
4. 4600
5. 9400

====

target: CYP3A4 (Homo sapiens, UniProt P08684); construct: from tissue; host or cells: human liver microsomes; experiment: CYP inhibition assay, human liver microsomes, substrate midazolam; assay type: in vitro ADME; settings: human liver microsomes, 10 min incubation, LC-MS/MS; read-out: CYP Inhibition Activity (IC50/nM) CYP3A4
Sequence (P08684 whole entry): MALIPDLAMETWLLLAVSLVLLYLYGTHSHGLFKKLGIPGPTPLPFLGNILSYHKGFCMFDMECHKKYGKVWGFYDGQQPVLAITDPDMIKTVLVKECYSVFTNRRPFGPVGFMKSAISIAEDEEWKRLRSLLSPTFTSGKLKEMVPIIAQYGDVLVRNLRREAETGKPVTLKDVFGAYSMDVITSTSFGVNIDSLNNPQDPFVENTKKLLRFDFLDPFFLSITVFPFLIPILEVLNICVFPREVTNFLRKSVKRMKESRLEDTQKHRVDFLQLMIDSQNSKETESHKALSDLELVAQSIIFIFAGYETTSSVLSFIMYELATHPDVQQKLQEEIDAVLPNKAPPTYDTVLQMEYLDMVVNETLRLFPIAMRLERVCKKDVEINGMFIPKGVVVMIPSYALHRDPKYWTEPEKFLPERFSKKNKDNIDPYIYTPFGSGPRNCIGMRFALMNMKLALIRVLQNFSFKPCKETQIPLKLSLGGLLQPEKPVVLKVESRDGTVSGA
READOUT KIND: IC50 (nM)
Answers are plain numbers, in nM.

CNC(=O)C1(C)CCN(c2ccc(C(F)(F)F)cc2NC(=O)c2ccc(C3CCOCC3)o2)CC1
750
CNCC1(C)CCN(c2ccc(C(F)(F)F)cc2NC(=O)c2ccc(-c3ccncc3)o2)CC1
4500

Now for the compound whose IC50 we want.
Recorded result, CNC(=O)C1(C)CCN(c2ccc(C(F)(F)F)cc2NC(=O)c2ccc(-c3ccncc3)o2)CC1 , IC50: 470

====

molecular target: SRPK1 (Homo sapiens); assay: In vitro SRPK1 assay (Kinase-Glo); format: biochemical
Sequence (Q96SB4 whole entry, species assumed): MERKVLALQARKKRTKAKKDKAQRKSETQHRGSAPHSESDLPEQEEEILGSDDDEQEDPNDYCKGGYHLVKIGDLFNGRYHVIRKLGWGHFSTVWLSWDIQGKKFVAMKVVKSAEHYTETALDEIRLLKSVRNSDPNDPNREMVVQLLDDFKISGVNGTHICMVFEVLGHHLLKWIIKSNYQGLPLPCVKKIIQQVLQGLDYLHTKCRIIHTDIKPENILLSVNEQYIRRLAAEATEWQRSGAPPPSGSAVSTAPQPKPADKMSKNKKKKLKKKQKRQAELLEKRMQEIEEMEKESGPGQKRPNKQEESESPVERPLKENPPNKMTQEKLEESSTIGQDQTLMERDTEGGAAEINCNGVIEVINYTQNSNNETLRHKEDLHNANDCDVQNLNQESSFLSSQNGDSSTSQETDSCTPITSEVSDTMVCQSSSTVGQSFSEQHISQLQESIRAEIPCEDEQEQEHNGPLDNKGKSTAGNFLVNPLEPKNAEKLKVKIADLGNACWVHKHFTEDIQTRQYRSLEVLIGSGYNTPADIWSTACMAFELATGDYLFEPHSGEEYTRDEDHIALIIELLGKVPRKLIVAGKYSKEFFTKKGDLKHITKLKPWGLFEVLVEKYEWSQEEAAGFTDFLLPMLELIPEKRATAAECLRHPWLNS
READOUT KIND: IC50 (nM)
Give bare numbers, in nM.

CC1(C(N)=O)CCN(c2ccc(C(F)(F)F)cc2NC(=O)c2ccc(-c3ccncc3)o2)CC1
1.9
CN(C)CC1(C)CCN(c2ccc(C(F)(F)F)cc2NC(=O)c2ccc(-c3ccncc3)o2)CC1
42
C[C@]1(O)CCN(c2ccc(C(F)(F)F)cc2NC(=O)c2ccc(C3CCOCC3)o2)C1
96
O=C(Nc1cc(C(F)(F)F)ccc1N1CCC(C(=O)O)CC1)c1ccccn1
76

Consider the following items and state reported IC50 for each.
1. O=C(Nc1cc(Cl)ccc1N1CCCC(O)CC1)c1ccc(C2CCOCC2)o1 (racemic)
2. COc1ccc(N2CCC(C)(O)CC2)c(NC(=O)c2ccc(C3CCOCC3)o2)c1
3. CCC1(O)CCN(c2ccc(C(F)(F)F)cc2NC(=O)c2ccc(C3CCOCC3)o2)CC1
4. CC1(C)CCN(c2ccc(C(F)(F)F)cc2NC(=O)c2ccc(C3CCOCC3)o2)CC1
5. CN1CCC2(CCN(c3ccc(C(F)(F)F)cc3NC(=O)c3ccc(C4CCOCC4)o3)CC2)C1=O
6. CN1CCC2(CCN(c3ccc(C(F)(F)F)cc3NC(=O)c3ccc(C4CCOCC4)o3)CC2)C1

## Result
15
5.2
6
6
2.6
4.8

Would you mind listing IC50 for each of the following compounds?
1. O=C(Nc1cc(C(F)(F)F)ccc1N1CCC(O)C1)c1ccc(C2CCOCC2)o1 (racemic)
2. CC1(O)CCN(c2ccc(C(F)(F)F)cc2NC(=O)c2ccc(-c3ccncc3)o2)C1 (racemic)
3. CC1(O)CCCN(c2ccc(C(F)(F)F)cc2NC(=O)c2ccc(C3CCOCC3)o2)CC1 (racemic)

## Result
[75, 26, 1.6]

For each of the items listed, what is its IC50?
1. Cc1ccc(N2CCC(O)(CC3CC3)CC2)c(NC(=O)c2ccc(C3CCOCC3)o2)c1
2. CC1(O)CCN(c2ccc(C(F)(F)F)cc2NC(=O)c2ccccn2)CC1
3. CC1(C(=O)O)CCN(c2ccc(C(F)(F)F)cc2NC(=O)c2ccc(C3CCOCC3)o2)CC1

## Result
[11, 9, 3.6]

====

target: CYP3A4 (Homo sapiens); construct: from tissue; host or cells: human liver microsomes; test: CYP inhibition assay, human liver microsomes, substrate midazolam; format: in vitro ADME; conditions: human liver microsomes, 10 min incubation, LC-MS/MS; read-out: CYP Inhibition Activity (IC50/nM) CYP3A4
READOUT KIND: IC50 (nM)
Give bare numbers, in nM.

Here is how some compounds turned out for IC50.
Cc1ccc(N2CCC(O)(CC3CC3)CC2)c(NC(=O)c2ccc(C3CCOCC3)o2)c1
4400
CC1(CN)CCN(c2ccc(C(F)(F)F)cc2NC(=O)c2ccc(-c3ccncc3)o2)CC1
8320
CC1(O)CCN(c2ccc(OC(F)(F)F)cc2NC(=O)c2ccc(C3CCOCC3)o2)CC1
27300
CC1(C(N)=O)CCN(c2ccc(C(F)(F)F)cc2NC(=O)c2ccc(-c3ccncc3)o2)CC1
2370
CN(C)CC1(C)CCN(c2ccc(C3CC3)cc2NC(=O)c2ccc(C3CCOCC3)o2)CC1
29500
O=C(Nc1cc(C(F)(F)F)ccc1N1CCC(O)C1)c1ccc(-c2ccncc2)o1 (racemic)
2420
CC1(O)CCN(c2ccc(Cl)cc2NC(=O)c2ccc(-c3ccncc3)o2)CC1
670
O=C(Nc1cc(Cl)ccc1N1CCCC(O)CC1)c1ccc(-c2ccncc2)o1 (racemic)
1430
CC1(O)CCN(c2ccc(C(F)F)cc2NC(=O)c2ccc(-c3ccncc3)o2)CC1
1200
CC1(CN2CCCCC2)CCN(c2ccc(C(F)(F)F)cc2NC(=O)c2ccc(C3CCOCC3)o2)CC1
7700

Switching to the query record.
Value of IC50 reported for the compound CN(C)C(=O)C1(C)CCN(c2ccc(C3CC3)cc2NC(=O)c2ccc(C3CCOCC3)o2)CC1 is 1100

====

I'd appreciate it if you could supply log10 of IC50 values for the items below.
target: CYP2C9 (Homo sapiens, UniProt P11712); construct: from tissue; host or cells: human liver microsomes; test: CYP inhibition assay, human liver microsomes, substrate diclofenac; format: in vitro ADME; settings: human liver microsomes, 10 min incubation, LC-MS/MS; read-out: CYP Inhibition Activity (IC50/nM) CYP2C9
Sequence (P11712 whole entry): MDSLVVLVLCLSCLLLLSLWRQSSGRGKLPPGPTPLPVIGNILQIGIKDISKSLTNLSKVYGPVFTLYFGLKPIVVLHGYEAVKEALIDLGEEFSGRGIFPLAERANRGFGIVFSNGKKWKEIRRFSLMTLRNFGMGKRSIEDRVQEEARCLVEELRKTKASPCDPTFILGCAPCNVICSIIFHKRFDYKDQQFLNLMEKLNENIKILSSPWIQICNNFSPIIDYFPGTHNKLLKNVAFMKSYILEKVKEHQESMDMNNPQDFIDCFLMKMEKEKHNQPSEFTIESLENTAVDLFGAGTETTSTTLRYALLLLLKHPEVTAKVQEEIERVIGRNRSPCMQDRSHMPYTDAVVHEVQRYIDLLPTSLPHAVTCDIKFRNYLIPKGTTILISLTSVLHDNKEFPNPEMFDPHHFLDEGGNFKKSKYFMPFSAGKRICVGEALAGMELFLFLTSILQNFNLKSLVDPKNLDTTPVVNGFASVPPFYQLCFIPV
Each number you see is log10 of IC50, and the unit inside the log is nM.

Example cases with answers are listed next.
CC1(O)CCN(c2ccc(C(F)(F)F)cc2NC(=O)c2ccccn2)CC1
4.25
CC1(O)CCCN(c2ccc(C(F)(F)F)cc2NC(=O)c2ccc(-c3ccncc3)o2)CC1 (racemic)
2.79
CC1(O)CCN(c2ccc(Cl)cc2NC(=O)c2ccccn2)CC1
4.13
O=C(Nc1cc(C2CC2)ccc1N1CCC(O)CC1)c1ccc(C2CCOCC2)o1
3.88
CC1(C(N)=O)CCN(c2ccc(C(F)(F)F)cc2NC(=O)c2ccc(-c3ccncc3)o2)CC1
3.37
CNC(=O)C1(C)CCN(c2ccc(C(F)(F)F)cc2NC(=O)c2ccc(-c3ccncc3)o2)CC1
2.84
CC1(CN)CCN(c2ccc(C(F)(F)F)cc2NC(=O)c2ccc(-c3ccncc3)o2)CC1
3.96
CC1(O)CCN(c2ccc(C3CC3)cc2NC(=O)c2ccccn2)CC1
4.08

Provide each entry's log10 of IC50 from the list below.
1. CN(C)CC1(C)CCN(c2ccc(C(F)(F)F)cc2NC(=O)c2ccc(-c3ccncc3)o2)CC1
2. O=C(Nc1cc(C(F)(F)F)ccc1N1CCC(O)(C2CC2)CC1)c1ccc(C2CCOCC2)o1
3. CN(C)C(=O)C1(C)CCN(c2ccc(C(F)(F)F)cc2NC(=O)c2ccc(C3CCOCC3)o2)CC1
4. CC1(O)CCCN(c2ccc(C3CC3)cc2NC(=O)c2ccc(-c3ccncc3)o2)CC1 (racemic)
5. CC1(O)CCCN(c2ccc(Cl)cc2NC(=O)c2ccc(C3CCOCC3)o2)CC1 (racemic)

## Result
1: 3.88; 2: 3.80; 3: 3.16; 4: 4.06; 5: 2.91

All figures here come from patent US11420969B2.
